STUDY_TARGET: T1, integrin αvβ3, purified from human placenta (human, UniProt P06756 31-1048; P05106 27-788)
T1 construct: mature; Native heterodimer, immobilized on ELISA plates or on the BIAcore chip; biotinylated in capture lift and capture ELISA screens; also called αvβ3 receptor; vitronectin receptor
T1 sequence (P06756 31-1048, form in doubt, chain 1 of 2): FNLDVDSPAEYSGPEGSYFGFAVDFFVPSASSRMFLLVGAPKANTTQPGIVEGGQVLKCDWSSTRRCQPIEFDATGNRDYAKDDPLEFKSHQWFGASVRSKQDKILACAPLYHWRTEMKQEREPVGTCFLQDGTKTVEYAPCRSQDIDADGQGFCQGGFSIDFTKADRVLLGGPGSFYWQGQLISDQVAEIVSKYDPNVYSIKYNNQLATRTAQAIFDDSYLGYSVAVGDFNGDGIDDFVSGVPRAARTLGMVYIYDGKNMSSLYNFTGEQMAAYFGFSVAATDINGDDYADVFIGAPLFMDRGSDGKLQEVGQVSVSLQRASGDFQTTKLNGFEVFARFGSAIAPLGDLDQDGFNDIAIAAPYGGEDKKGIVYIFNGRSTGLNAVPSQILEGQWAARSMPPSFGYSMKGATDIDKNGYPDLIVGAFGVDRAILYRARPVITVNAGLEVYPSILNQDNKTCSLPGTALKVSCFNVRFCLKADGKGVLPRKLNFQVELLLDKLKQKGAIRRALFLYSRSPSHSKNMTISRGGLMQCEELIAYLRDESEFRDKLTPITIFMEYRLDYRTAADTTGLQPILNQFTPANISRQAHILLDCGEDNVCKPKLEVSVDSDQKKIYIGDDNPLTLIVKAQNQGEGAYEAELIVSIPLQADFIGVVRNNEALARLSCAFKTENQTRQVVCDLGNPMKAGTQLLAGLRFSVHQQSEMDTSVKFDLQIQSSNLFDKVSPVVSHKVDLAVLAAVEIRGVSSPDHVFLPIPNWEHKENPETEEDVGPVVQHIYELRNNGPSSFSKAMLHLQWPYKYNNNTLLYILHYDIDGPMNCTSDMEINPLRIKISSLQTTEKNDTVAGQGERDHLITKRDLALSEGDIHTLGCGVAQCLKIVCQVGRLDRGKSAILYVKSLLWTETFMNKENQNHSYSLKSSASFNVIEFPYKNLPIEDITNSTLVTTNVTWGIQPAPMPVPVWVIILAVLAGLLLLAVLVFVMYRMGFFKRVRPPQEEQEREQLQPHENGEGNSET
T1 sequence (P05106 27-788, form in doubt, chain 2 of 2): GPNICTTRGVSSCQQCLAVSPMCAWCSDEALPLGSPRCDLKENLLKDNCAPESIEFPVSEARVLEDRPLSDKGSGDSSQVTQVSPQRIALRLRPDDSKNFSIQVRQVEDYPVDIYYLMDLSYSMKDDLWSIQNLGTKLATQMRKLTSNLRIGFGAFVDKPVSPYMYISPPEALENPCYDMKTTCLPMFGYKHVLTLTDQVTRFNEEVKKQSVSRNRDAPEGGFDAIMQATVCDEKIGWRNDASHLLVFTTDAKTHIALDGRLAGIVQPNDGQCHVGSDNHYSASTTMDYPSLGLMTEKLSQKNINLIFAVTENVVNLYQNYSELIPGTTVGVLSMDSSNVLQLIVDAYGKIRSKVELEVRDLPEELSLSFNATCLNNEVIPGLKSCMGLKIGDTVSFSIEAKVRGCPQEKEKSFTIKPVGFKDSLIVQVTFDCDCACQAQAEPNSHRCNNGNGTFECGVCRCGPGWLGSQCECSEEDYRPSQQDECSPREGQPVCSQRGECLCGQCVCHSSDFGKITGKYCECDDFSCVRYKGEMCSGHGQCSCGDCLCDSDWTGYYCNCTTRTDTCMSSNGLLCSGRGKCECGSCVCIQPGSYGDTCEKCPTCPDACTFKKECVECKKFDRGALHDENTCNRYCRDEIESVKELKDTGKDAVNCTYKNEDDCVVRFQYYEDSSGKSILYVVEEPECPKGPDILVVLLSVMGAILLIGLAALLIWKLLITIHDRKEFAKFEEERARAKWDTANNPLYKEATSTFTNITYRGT
PROTOCOL_DETAILS: ELISA titration of Fab on immobilized αvβ3
ASSAY_ENDPOINT: fold enhanced binding over parent LM609 grafted antibody

>  <BINDER>
LM609 grafted antibody variant T102 (Fab, V domains shown, Fab) VH: QVQLVESGGGVVQPGRSLRLSCAASGFTFSSYDMSWVRQAPGKGLEWVAKVSSGGGSTYYLDTVQGRFTISRDNSKNTLYLQMNSLRAEDTAVYYCARHNYGSFATWGQGTTVTVSS VL: EIVLTQSPATLSLSPGERATLSCQASQSISNHLHWYQQRPGQAPRLLIRYRSQSISGIPARFSGSGSGTDFTLTISSLEPEDFAVYYCQQSGSWPHTFGGGTKVEIK

>  <MEASURED>
> 3 fold

$$$$
